Reference source for all entries: paper PMC10397247

Biological target: T1, 4H2505-AA
T1 chain: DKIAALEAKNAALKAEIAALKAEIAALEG
Experiment: two-hybrid library CCmax;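 also: natural log of median RNA to DNA barcode read ratio; higher means stronger binding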
Conditions: mean of both orientations
ASSAY METRIC: interaction score

BINDER	interaction score
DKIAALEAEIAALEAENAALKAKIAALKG [4H2078-AA]	1.62

(I) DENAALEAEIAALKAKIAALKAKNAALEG [4H1135-AA]
(II) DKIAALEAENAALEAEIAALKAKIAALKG [4H2190-AA]
(III) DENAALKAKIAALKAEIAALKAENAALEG [4H1867-AA]
Order the 3 binders from highest to lowest interaction score. Please express your ranking as an ordered list of the labels.
II, I, III
(II: 2.21, I: 1.53, III: -1.62)
